assay: Solubility of compound in 50 mM Tris-Hcl/1mM EDTA at 1 mM at pH 7.5; format: physicochemical; details: buffer, pH 7.5, 1000 µM
assay-readout: solubility

>>> experimental_value("CCOC(=O)[C@@H]1[C@@H]2C=C[C@@H](C2)[C@@]12C(=O)Oc1ccccc12")
"soluble"
>>> experimental_value("CCOC(=O)CC1C(=O)Nc2ccc(Cl)cc21 (stereo not given)")
"soluble"
>>> experimental_value("CCOC(=O)[C@@H]1[C@@H]2C=C[C@@H](C2)[C@@]12C(=O)Nc1ccccc12")
"soluble"
>>> experimental_value("CN1C(=O)C(CC#N)c2ccccc21 (stereo not given)")
"soluble"
>>> experimental_value("N#C/C=C1/C(=O)Nc2ccc(OC(F)(F)F)cc21")
"soluble"
>>> experimental_value("CCOC(=O)[C@H]1[C@@H]2C=C[C@@H](C2)[C@]12C(=O)Nc1ccc(OC(F)(F)F)cc12")
"soluble"

Fill in: solubility of `CCOC(=O)[C@H]1[C@@H]2C=C[C@@H](C2)[C@]12C(=O)Sc1ccccc12` is ___
soluble

Fill in: solubility of N#CC1[C@@H]2C=C[C@@H](C2)C12C(=O)Nc1ccccc12 (mixture of isomers) is ___
soluble

Field request: solubility | item: `CCOC(=O)/C=C1/C(=O)Sc2ccccc21`
soluble

###

Molecular target: Mycocyclosin synthase (Mycobacterium tuberculosis)
Sequence (P9WPP7 whole entry): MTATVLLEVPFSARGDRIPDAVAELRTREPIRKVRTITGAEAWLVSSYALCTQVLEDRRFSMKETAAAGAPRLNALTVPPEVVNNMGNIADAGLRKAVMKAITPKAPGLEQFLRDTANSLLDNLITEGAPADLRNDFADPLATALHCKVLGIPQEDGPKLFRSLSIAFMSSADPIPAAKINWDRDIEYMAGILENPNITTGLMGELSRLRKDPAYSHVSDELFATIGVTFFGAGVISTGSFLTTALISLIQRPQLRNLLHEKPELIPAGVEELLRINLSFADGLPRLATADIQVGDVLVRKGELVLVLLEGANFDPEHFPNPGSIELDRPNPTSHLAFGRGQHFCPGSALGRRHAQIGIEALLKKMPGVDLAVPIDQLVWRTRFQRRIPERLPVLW
Test: Binding affinity to Mycobacterium tuberculosis recombinant His6-tagged CYP121 expressed in Escherichia coli C41(DE3) cells assessed as change in wavelength of heme soret band at 1 mM by UV-visible spectrophotometric method
Settings: 1000 µM
Answer each item with its documented Activity.

# input compound: `CCOC(=O)[C@@H]1[C@@H]2C=C[C@@H](C2)[C@@]12C(=O)Nc1ccccc12` ; wanted: its Activity
-1 nm

Need Activity, item CCOC(=O)CC1C(=O)Nc2ccc(Cl)cc21 (configuration not stated)
0 nm

Recorded Activity of `CCOC(=O)[C@H]1[C@@H]2C=C[C@@H](C2)[C@]12C(=O)Sc1ccccc12` , please.
-1 nm

Endpoint output: Activity of `CCOC(=O)[C@H]1[C@@H]2C=C[C@@H](C2)[C@]12C(=O)N(C)c1ccccc12` . Value?
-2 nm

// query Activity value for entry `CCOC(=O)[C@H]1[C@@H]2C=C[C@@H](C2)[C@]12C(=O)Nc1ccc(OC(F)(F)F)cc12`
0 nm

Reported Activity for `N#C[C@H]1[C@@H]2C=C[C@@H](C2)[C@]12C(=O)Nc1ccccc12` : what is it?
0 nm

###

molecular target: Mycocyclosin synthase (Mycobacterium tuberculosis, UniProt P9WPP7); test: Binding affinity to Mycobacterium tuberculosis recombinant His6-tagged CYP121 expressed in Escherichia coli C41(DE3) cells assessed as change in wavelength of heme soret band at 1 mM by UV-visible spectrophotometric method; conditions: 1000 µM
assay-readout: Activity (nm)
Could you give me the number in nm? Just the number is fine.

Give its Activity value. Item: `CCOC(=O)[C@@H]1[C@@H]2C=C[C@@H](C2)[C@@]12C(=O)N(C(C)=O)c1ccccc12`
0

Form field: reported Activity of `CCOC(=O)[C@H]1[C@@H]2C=C[C@@H](C2)[C@]12C(=O)Nc1ccc(F)cc12`
0

Form field: reported Activity of `CCOC(=O)/C=C1/C(=O)N(C(C)=O)c2ccccc21`
0

Report Activity for CCOC(=O)CC1C(=O)Nc2ccc(OC(F)(F)F)cc21 (centres undefined) please.
0

Need Activity, item N#CC1[C@@H]2C=C[C@@H](C2)C12C(=O)Nc1ccc(OC(F)(F)F)cc12 (mixture of isomers)
0

Record request: Activity value, item `CCOC(=O)[C@@H]1[C@@H]2C=C[C@@H](C2)[C@@]12C(=O)Oc1ccccc12`
0

Field request: Activity | item: N#CCC1C(=O)Nc2ccc(OC(F)(F)F)cc21 (centres undefined)
-2

Request the reported Activity associated with `CCOC(=O)[C@H]1[C@@H]2C=C[C@@H](C2)[C@]12C(=O)Oc1ccccc12`
-1
